Test system: UACC-62 melanoma
assayDetails: NCI-60 one-dose screen, 48 h
experimentalParameters: 10 µM
This is part of a sample that, as a whole, favours compounds with a hit. Of some 83,000 tested, about 20% had one in any assay. Active and inactive are the calls of the source. The calls were made as follows: active = growth percent below 10; inactive = the rest.
Outcome (select one): y (active), n (inactive)

compound=CCN(CC)CCSCCCNc1c2ccc(Cl)cc2nc2ccc(OC)cc12 classname=y

Input: // return assay outcome for COc1ccc2c(c1)O/C(=C\c1ccc([N+](=O)[O-])s1)C2=O
Output: n

Input: Could you do the same for Cc1ncc(-c2ccoc2)c(NC2CCCCCC2)n1 , please?
Output: n

Input: # repeat for COc1cc(Nc2ncnc(Nc3ccc4c(n3)NC(=O)C(C)(C)O4)n2)cc(OC)c1OC
Output: n

Input: Then Cc1ccc(S(=O)(=O)Oc2ccc3c4c(c(=O)oc3c2)CCCCC4)cc1 ?
Output: n

Input: Now give it for COc1cc(-c2nc(-c3nnc(-c4ccc(F)c(Cl)c4)o3)c3ccccn23)cc(OC)c1OC too.
Output: n

Input: What do we get for O=C(Nc1ccc(Cl)cc1)N1NC(c2ccc(Cl)cc2)C=C1c1ccccc1 (stereo not given) ?
Output: n

Data origin, for the record: PubChem BioAssay (NCI)
